- experiment-description: Cytotoxicity against mouse NIH/3T3 cells incubated for 24 hrs by MTT assay
- measurement-conditions: nih3t3
observed-property: IC50 at 24 h (nM)
Respond numerically; units are nM and should not be typed.

May I ask what IC50 at 24 h has been recorded for COc1cc2c(cc1OC)C(=O)C(CC1CCN(Cc3ccccc3)CC1)C2 (stereo unspecified) [DONEPEZIL] ? 1260

###

- System: Mus musculus
- experiment-description: Anticonvulsant activity in ip dosed MES induced mouse seizure model measured after 0.5 and 4 hrs
- Type: functional
Binary call on ED50 with cut-off 20 mg/kg: strictly below means Y, and equality or higher means N.

Here are 2 compounds together with their reported answers.
>>> df
                                   compound  label
0  NC(=O)N1c2ccccc2C=Cc2ccccc21 [CARBAMAZEPINE]      Y
1               Cc1ccccc1Cn1nnnc1-c1ccccc1C      Y

ED50 strictly < 20 mg/kg for this compound? Cc1ccccc1-c1nnnn1Cc1cccc(F)c1 N

ED50 strictly < 20 mg/kg for this compound? Clc1ccc(C2Cc3nnnn3-c3ccsc32)cc1 (configuration not stated) Y
